Catalogue of Viability readings, one per entry.
Tested on: Taxus cells
procedureSummary: Post-thaw viability of cryopreserved Taxus cells (FDA / trypan blue staining)
condition: cryoprotectant in vitrification solution: DMSO 5%-30%, propylene glycol 15%, glycerol 20%-30%, PEG-8000 10%, ethylene glycol 20%-50%; 3% mannitol 3 days; after −196° C. storage
measuredMetric: Viability (%)

- OCC(O)CO: 0
- CC(O)CO (stereo not shown): 0

----------
Tested on: Taxus cells
procedureSummary: Post-thaw viability of cryopreserved Taxus cells (FDA / trypan blue staining)
condition: Taxus species
Catalogue of Survival (Viability) Frozen readings, one per entry.
measuredMetric: Survival (Viability) Frozen

- OC[C@H]1O[C@@](CO)(O[C@H]2O[C@H](CO)[C@@H](O)[C@H](O)[C@H]2O)[C@@H](O)[C@@H]1O: 20-50%
- O=C(O)[C@@H]1CCCN1: <15%
- OC[C@H]1O[C@H](O[C@H]2O[C@H](CO)[C@@H](O)[C@H](O)[C@H]2O)[C@H](O)[C@@H](O)[C@@H]1O: <15%
- OC[C@@H](O)[C@@H](O)[C@H](O)[C@@H](O)CO: 30-70%
- OC[C@@H](O)[C@@H](O)[C@H](O)[C@H](O)CO: 40-80%

----------
System: Taxus cells
procedureSummary: Viability of Taxus cells at end of preculture period (before freezing)
Format: cell-based, Taxus species
condition: end of preculture period with the osmotic agent, not frozen
Catalogue of Survival (Viability) Control readings, one per entry.
measuredMetric: Survival (Viability) Control

- OC[C@@H](O)[C@@H](O)[C@H](O)[C@H](O)CO: 50-95%
- O=C(O)[C@@H]1CCCN1: <50%
- OC[C@H]1O[C@@](CO)(O[C@H]2O[C@H](CO)[C@@H](O)[C@H](O)[C@H]2O)[C@@H](O)[C@@H]1O: 50-95%
- OC[C@@H](O)[C@@H](O)[C@H](O)[C@@H](O)CO: 50-95%
- OC[C@H]1O[C@H](O[C@H]2O[C@H](CO)[C@@H](O)[C@H](O)[C@H]2O)[C@H](O)[C@@H](O)[C@@H]1O: 50-95%
